Tested system: EGFR WT (wild type EGFR) (Homo sapiens (Human), UniProt P00533)
Sequence (P00533 25-1210): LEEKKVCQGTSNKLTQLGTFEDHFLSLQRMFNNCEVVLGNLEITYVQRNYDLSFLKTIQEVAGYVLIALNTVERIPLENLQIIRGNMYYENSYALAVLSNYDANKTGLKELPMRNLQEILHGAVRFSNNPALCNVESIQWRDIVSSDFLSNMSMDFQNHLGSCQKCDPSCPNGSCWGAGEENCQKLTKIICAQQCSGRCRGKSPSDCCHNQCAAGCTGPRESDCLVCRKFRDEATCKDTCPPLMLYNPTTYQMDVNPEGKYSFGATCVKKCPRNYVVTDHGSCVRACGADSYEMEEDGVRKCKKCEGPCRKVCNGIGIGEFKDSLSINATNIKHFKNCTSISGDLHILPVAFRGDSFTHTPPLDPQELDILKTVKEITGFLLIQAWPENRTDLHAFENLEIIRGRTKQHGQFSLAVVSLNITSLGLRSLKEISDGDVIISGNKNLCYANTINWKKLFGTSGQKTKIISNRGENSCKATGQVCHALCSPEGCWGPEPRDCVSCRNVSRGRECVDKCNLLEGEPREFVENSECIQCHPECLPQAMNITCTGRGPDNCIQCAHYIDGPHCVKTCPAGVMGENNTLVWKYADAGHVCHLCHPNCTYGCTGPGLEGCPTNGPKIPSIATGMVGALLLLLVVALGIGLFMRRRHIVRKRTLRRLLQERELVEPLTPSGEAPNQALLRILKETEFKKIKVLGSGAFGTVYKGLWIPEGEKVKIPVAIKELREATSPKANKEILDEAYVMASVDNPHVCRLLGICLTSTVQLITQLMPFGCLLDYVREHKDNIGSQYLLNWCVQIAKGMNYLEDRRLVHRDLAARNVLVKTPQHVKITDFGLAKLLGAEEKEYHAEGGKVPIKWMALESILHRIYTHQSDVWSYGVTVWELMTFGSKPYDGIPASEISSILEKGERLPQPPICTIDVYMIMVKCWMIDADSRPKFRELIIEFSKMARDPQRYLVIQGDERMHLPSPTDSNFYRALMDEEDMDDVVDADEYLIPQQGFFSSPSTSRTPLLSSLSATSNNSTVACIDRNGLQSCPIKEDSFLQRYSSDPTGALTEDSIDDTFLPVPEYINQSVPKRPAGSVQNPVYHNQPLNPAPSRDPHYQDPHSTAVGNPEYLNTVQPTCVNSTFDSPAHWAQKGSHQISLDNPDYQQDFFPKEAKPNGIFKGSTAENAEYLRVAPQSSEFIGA
Assay remarks: In vitro enzymatic TR-FRET (HTRF KinEASE-TK) kinase assay, EGFR WT
Type: biochemical
Experimental setup: kinase activity, TR-FRET; read-out: EGFR (WT) IC50
Readout: IC50

Some entries whose results are on file:
Compound: COc1cc2c(cc1Nc1ncc(Br)c(Nc3ccc4nccnc4c3NS(C)(=O)=O)n1)-c1cnn(C)c1CCN2C1CCOCC1
IC50: 1 to 10 nM
--
Compound: COc1cc2c(cc1Nc1ncc(C)c(Nc3ccccc3P(C)(C)=O)n1)-c1cnn(C)c1CCN2C
IC50: 1 to 10 nM
--
Compound: COc1cc2c(cc1Nc1ncc(Br)c(Nc3ccc4nccnc4c3P(C)(C)=O)n1)-c1cnn(C)c1CCN2C1CN(C)C1
IC50: < 1 nM

QUERY: Missing value: IC50, EGFR WT (wild type EGFR) (Homo sapiens (Human), UniProt P00533), entry COc1cc2c(cc1Nc1ncc(Br)c(Nc3ccccc3P(C)(C)=O)n1)-c1cnn(C)c1CCN2 . Fill in?
RESULT: 1 to 10 nM

QUERY: Missing value: IC50, EGFR WT (wild type EGFR) (Homo sapiens (Human), UniProt P00533), entry COc1ccc(Cn2ncc3c2CCN(C)c2cc(OC)c(Nc4ncc(Br)c(Nc5ccccc5P(C)(C)=O)n4)cc2-3)cc1 . Fill in?
RESULT: 50 to 100 nM
